Every entry's value here was drawn from patent US11230556B2.

SYSTEM_NAME: human M4 muscarinic acetylcholine receptor (Homo sapiens, UniProt P08173)
Sequence (P08173 whole entry): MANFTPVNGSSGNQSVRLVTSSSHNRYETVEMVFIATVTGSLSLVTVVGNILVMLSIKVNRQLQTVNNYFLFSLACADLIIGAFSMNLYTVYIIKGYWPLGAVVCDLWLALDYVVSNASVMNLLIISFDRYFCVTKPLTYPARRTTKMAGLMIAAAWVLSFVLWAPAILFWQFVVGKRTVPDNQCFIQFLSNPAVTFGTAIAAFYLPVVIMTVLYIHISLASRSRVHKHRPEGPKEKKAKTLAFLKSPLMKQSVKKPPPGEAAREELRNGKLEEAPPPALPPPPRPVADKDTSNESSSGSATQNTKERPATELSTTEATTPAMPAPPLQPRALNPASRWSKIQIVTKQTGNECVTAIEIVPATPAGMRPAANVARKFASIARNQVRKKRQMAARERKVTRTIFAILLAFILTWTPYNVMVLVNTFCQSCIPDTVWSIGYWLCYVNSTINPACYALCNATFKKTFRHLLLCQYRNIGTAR
ASSAY_REMARKS: human FLIPR-based M4 PAM assay (CHO-K1 cells with human M4 receptor and Gαqi5, calcium dye fluorescence, acetylcholine at 20% of maximum response)
CONDITION_LABEL: inflection point (IP) of 4 parameter logistic dose response curve, human M4 receptor + Gαqi5, FLIPR Tetra
PROPERTY_MEASURED: EC50 (nM)

MOLECULE	OBSERVED_RESULT
COc1ccc(OC2CCN(c3nc4nn(C)c(=O)n4cc3C)CC2)cn1 [Example 11]	87

[a] COc1ccc(OC2CCN(c3nc4c(cc3C)CN(C(=O)C3COC3)C4)CC2)cn1 [Example 55]
[b] COc1ccc(OC2CCN(c3nc4c(cc3C)CN(C(=O)C3CC3(F)F)C4)CC2)cn1 (centres unmarked) [Example 57]
[c] Cc1cn2c(=O)n(C)nc2nc1N1CCC(Oc2cccc(C#N)c2)CC1 [Example 17]
Task: Rank descending by EC50. Show the ranking through the labels, in the order asked for.
Result: b, a, c
(b: 378 nM, a: 212 nM, c: 36 nM)
